Value source: PubChem BioAssay (NCI)

system: SF-295 CNS; experiment: NCI-60 one-dose screen, 48 h (100 = growth as untreated, 0 = no growth, -100 = all killed); details: 10 µM unless noted
This is part of a sample that, as a whole, favours compounds with a hit. Of some 83,000 tested, about 20% had one in any assay.
Range-based classes on measured growth: lowest = under 20%, middle = from 20% up to 90%, highest = 90% and over

Study these solved cases before continuing.
Query string: Which growth category applies to "C=CC(=O)NCc1cccc(Nc2ncc(Br)c(NCCCNC(=O)C3CCC3)n2)c1" here?
Result string: lowest

Query string: One more molecule: "Cn1cc(-c2csc(-c3cn(CCO)c4ccc(F)cc34)n2)c2cccnc21"
Result string: middle

Query string: One more molecule: "COC(=O)c1sc(-c2ccc(C)cc2)cc1O"
Result string: highest

---
Query string: Which growth category applies to "CCCCCCCCOC(=O)c1c(C)[nH]c(/C=C2\N=C(c3ccc[nH]3)C=C2OC)c1C" here?
Result string: lowest

Query string: One more molecule: COc1ccc(C2=NN(C=O)C(c3ccc(Oc4nc5c(c(=O)n(C)c(=O)n5C)n4C)c(OC)c3)C2)cc1 (stereo not drawn)
Result string: middle

Query string: One more molecule: "Cc1cc(N2CCOCC2)nc(N(CCCNc2ccnc3cc(Cl)ccc23)Cc2ccc3c(c2)OCO3)n1"
Result string: lowest

Query string: One more molecule: CCCN1C(=O)N(CCC)C2C1NC(=S)N2/N=C/C=C/c1ccccc1OC (stereo not drawn)
Result string: lowest

Query string: One more molecule: "C=C(C)[C@@H]1CC[C@]2(COCCCNCCCN)CC[C@]3(C)[C@H](CC[C@@H]4[C@@]5(C)CC[C@H](OCCCN)C(C)(C)[C@@H]5CC[C@]43C)[C@@H]12"
Result string: highest

Query string: One more molecule: "COc1ccc(/C=N\NC(=O)c2ccc3nc(-c4ccc(Cl)cc4)[nH]c3c2)cc1"
Result string: lowest

Query string: One more molecule: "CNc1nc2ncc(-c3c(C)noc3C)cc2n1Cc1ccccc1"
Result string: middle

Query string: One more molecule: "C=CCn1c(SCC(=O)Nc2ccc(C(=O)/C=C/c3ccc(Cl)cc3)cc2)nnc1-c1ccc(Cl)c(Cl)c1"
Result string: highest

Query string: One more molecule: "O=C(Nc1ncc(Cc2ccc(Cl)cc2)s1)c1ccc2c(c1)OCCO2"
Result string: lowest

Query string: One more molecule: "COc1cc(OCc2cccc(-c3ccc4c(c3)OCCO4)c2C)cc(OC)c1C=O"
Result string: middle

Query string: One more molecule: "O=C(CNc1ncco1)Nc1ccc(S(=O)(=O)c2ccc(NC(=O)CNc3ncco3)cc2)cc1"
Result string: middle

Query string: One more molecule: "COC(=O)c1c(C)nc(C)c2c1C(=O)C(Br)=C(NCCN1CCOCC1)C2=O"
Result string: highest

Query string: One more molecule: "COc1cccc2cc(N(C)c3ncnc4ccccc34)ccc12"
Result string: lowest

Query string: One more molecule: Cc1ccc(C23CCC(=O)N2CCc2cncn23)cc1 (stereo not drawn)
Result string: highest

Query string: One more molecule: "Cc1nc2ccccc2c(/C=C/c2ccc(Cl)cc2)c1C(=O)/C=C/c1ccccc1"
Result string: lowest

Query string: One more molecule: "C=CCNc1ccc2c3c(cccc13)C(=O)N(CC=C)C2=O"
Result string: highest

Query string: One more molecule: N#CC1=C(N)Oc2c(ccc3cccnc23)C1c1ccccc1 (stereo not drawn)
Result string: lowest

Query string: One more molecule: CN(C)CC1C(=O)O[C@H]2[C@H]1CC/C(COC(=O)NCc1ccc(Cn3c(=O)sn(CCCI)c3=O)cc1)=C\CC[C@@]1(C)O[C@@H]21 (stereo partly drawn)
Result string: highest

Query string: One more molecule: "COc1cccc2cc(N(C)c3nc(C)nc4c3CCC4)ccc12"
Result string: lowest

Query string: One more molecule: CCN1C(=O)N(CC)C2C1NC(=S)N2/N=C/C=C/c1cccs1 (stereo not drawn)
Result string: lowest

Query string: One more molecule: "C(=N\Nc1nnc2n1N=C(c1ccccc1)CS2)/c1ccc(OCc2ccccc2)cc1"
Result string: highest

Query string: One more molecule: "C=C(c1ccc(C(=O)O)c(F)c1)c1cc2c(cc1C)C(C)(C)C=CC2(C)C"
Result string: middle

Query string: One more molecule: CCN1C(=O)N(CC)C2C1NN=c1s/c(=C3\C(=O)N(C)c4ccccc43)c(=O)n12 (stereo not drawn)
Result string: lowest

Query string: One more molecule: "CN(C)C(=S)NN=C(c1ccccn1)c1ccccn1"
Result string: middle
